The values you see were collected from patent US20130274352A1.

Assay text: in vitro
Applied conditions: human, Caco-2
Readout type: Papp A→B at 1 h, 1 μCi/ml (×10⁻⁶ cm/s)
Reply with just the number (in ×10⁻⁶ cm/s).

Return Papp A→B at 1 h, 1 μCi/ml (reported value) for this molecule: OC[C@@H](O)[C@@H](O)[C@H](O)[C@H](O)CO [mannitol, reference compound]
0.43
